- Tested on: human red blood cells
- METHOD_DESCRIPTION: Hemolysis assay
- CONDITION_SET: peptide concentration 256 µg/mL, 30 min, 37 °C
ENDPOINT_NAME: % Hemolysis (%)
Value expressed in %; do not type the unit.

Item under review: H-GLKDKFKSMGEKLKQYIQTWKAKF-NH2 [Ltc4a] . Reported % Hemolysis?
12

Further cases:
Tell me the measured % Hemolysis of H-GFFGKMKEYFKKFGASFKRRFANLKKRL-NH2 [Ltc5] , please.
27

What value of % Hemolysis has been recorded for this entry: H-SWKSMAKKLKEYMEKLKQRA-NH2 [Ltc3a]
16

What value of % Hemolysis has been recorded for this entry: H-QAFQTFKPDWNKIRYDAMKMQTSLGQMKKRFNL-OH [Ltc6a]
3

* * *

- METHOD_DESCRIPTION: Circular dichroism spectroscopy (secondary structure)
- Type: physicochemical
- CONDITION_SET: CD in DMPC/DMPG (7/3) SUVs, P/L = 1:50, 10 mM phosphate buffer pH 7.0, 30 °C, peptide 29.3 μM; deconvolution with CDSSTR, CONTIN-LL, SELCON-3
Overview of recorded % Helix (CD) for various substances
// return numeric value only (unit: %, not printed)

Illustrative cases are given below, each with its answer.
Which % Helix (CD) is reported for this substance? H-SMWSGMWRRKLKKLRNALKKKLKGE-OH [Ltc1]
66

If you can, please state the reported % Helix (CD) value of H-SWKSMAKKLKEYMEKLKQRA-NH2 [Ltc3a] .
87

Name the reported % Helix (CD) value associated with the substance H-GFFGKMKEYFKKFGASFKRRFANLKKRL-NH2 [Ltc5]
85

Entry H-GLKDKFKSMGEKLKQYIQTWKAKF-NH2 [Ltc4a] has what % Helix (CD)?
94

Continuing:
% Helix (CD) for H-QAFQTFKPDWNKIRYDAMKMQTSLGQMKKRFNL-OH [Ltc6a] ?
65

* * *

- METHOD_DESCRIPTION: Oriented circular dichroism (helix alignment in membrane)
- Type: physicochemical
- CONDITION_SET: DMPC/DMPG (7/3), P/L = 1:100, oriented hydrated bilayers, 30 °C
ENDPOINT_NAME: OCD: orientational state of the helix

Look up OCD: orientational state of the helix for this substance: H-SMWSGMWRRKLKKLRNALKKKLKGE-OH [Ltc1]
Surface

Requested read-out: OCD: orientational state of the helix. Entry: H-GFFGKMKEYFKKFGASFKRRFANLKKRL-NH2 [Ltc5]
Surface

* * *

- METHOD_DESCRIPTION: Solid-state 15N-NMR (helix alignment in membrane)
- Format: physicochemical
- CONDITION_SET: DMPC/DMPG (7/3), P/L = 1:100, oriented samples, solid-state 15N-NMR, 308 K
ENDPOINT_NAME: NMR: orientational state of the helix

Recorded NMR: orientational state of the helix of H-GFFGKMKEYFKKFGASFKRRFANLKKRL-NH2 [Ltc5] , please.
Surface

Look up NMR: orientational state of the helix for this substance: H-SMWSGMWRRKLKKLRNALKKKLKGE-OH [Ltc1]
Surface
